Molecular target: Muscarinic acetylcholine receptor M2 (Rattus norvegicus, UniProt P10980)
Sequence (P10980 whole entry): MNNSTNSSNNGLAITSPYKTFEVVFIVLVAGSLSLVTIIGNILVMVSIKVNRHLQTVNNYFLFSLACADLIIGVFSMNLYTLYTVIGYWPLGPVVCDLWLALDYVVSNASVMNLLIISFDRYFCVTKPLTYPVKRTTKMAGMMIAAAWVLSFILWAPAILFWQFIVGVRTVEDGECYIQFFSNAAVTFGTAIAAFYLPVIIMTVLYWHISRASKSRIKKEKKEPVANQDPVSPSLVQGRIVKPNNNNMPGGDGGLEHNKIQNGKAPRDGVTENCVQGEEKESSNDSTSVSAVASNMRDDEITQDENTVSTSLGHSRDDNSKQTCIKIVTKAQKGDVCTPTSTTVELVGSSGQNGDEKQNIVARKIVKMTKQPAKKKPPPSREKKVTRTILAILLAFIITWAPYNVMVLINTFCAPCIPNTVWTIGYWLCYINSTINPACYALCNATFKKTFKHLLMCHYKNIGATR
measurement-label: Ki (µM)
Give bare numbers, in µM.

These recorded examples may help you get a feel for the data.
input: Find the measured Ki: item C[C@@H]1[C@@H]2Cc3ccc(O)cc3[C@]1(C)CCN2CCN1CCCCCC1 , target or system Muscarinic acetylcholine receptor M2 (Rattus norvegicus, UniProt P10980).
output: 1.84

input: Find the measured Ki: item C[C@@H]1[C@@H]2Cc3ccc(O)cc3[C@]1(C)CCN2CCN1CCCC1 , target or system Muscarinic acetylcholine receptor M2 (Rattus norvegicus, UniProt P10980).
output: 1.95

input: Find the measured Ki: item C[C@@H]1[C@@H]2Cc3ccc(O)cc3[C@]1(C)CCN2CCN1CCOCC1 , target or system Muscarinic acetylcholine receptor M2 (Rattus norvegicus, UniProt P10980).
output: 0.419

input: Find the measured Ki: item CCN(CC)CCN1CC[C@@]2(C)c3cc(O)ccc3C[C@H]1[C@H]2C , target or system Muscarinic acetylcholine receptor M2 (Rattus norvegicus, UniProt P10980).
output: 1.99

Continuing:
input: Find the measured Ki: item C[C@@H]1[C@@H]2Cc3ccc(O)cc3[C@]1(C)CCN2CCN1CCCCC1 , target or system Muscarinic acetylcholine receptor M2 (Rattus norvegicus, UniProt P10980).
output: 7.8

Taken from ChEMBL document CHEMBL1131505.
